Source of measurements: patent US10125118B2

# System tested: human c-MER catalytic domain (Homo sapiens (Human))
# Test details: LanthaScreen TR-FRET kinase assay, c-MER
# Condition info: read-out: Mer TK inhibition (IC50); Biochemical IC50, TR-FRET, 10 uM ATP
pIC50: −log10 of the molar value.
The entries below are paired with their reported pIC50.

> print(dat)
                                   compound  result
1  Cn1cc(-c2cnc(N)c(C(=O)N[C@H]3CCC[C@@H]3O)c2)cn1  < 6.00
2  C[C@@H]1CN(Cc2ccc(-c3ccc(CO[C@H]4CCC[C@@H]4NC(=O)c4cc(-c5cnn(C)c5)cnc4N)c(F)c3)cc2)C[C@H](C)N1C  > 8.00
3  Nc1nc(Nc2ccccc2)ccc1C(=O)N[C@H]1CCC[C@@H]1OCc1ccccc1  < 6.00

Which pIC50 reading was recorded for the compound `C[C@@H](c1ccc(-c2ccc(CO[C@H]3CCC[C@@H]3NC(=O)c3cc(-c4cnn(C)c4)cnc3N)cc2)cc1)N1CCN(C)CC1` ?
> 8.00

Dear colleague, I am looking for the recorded pIC50 of the following compound: `Cn1cc(-c2cnc(N)c(C(=O)N[C@H]3CCC[C@@H]3OCc3ccccc3)c2)c(CNCCO)n1`
< 6.00

---

# System tested: human c-MER catalytic domain (Homo sapiens (Human), UniProt Q12866)
# Sequence (Q12866 587-858): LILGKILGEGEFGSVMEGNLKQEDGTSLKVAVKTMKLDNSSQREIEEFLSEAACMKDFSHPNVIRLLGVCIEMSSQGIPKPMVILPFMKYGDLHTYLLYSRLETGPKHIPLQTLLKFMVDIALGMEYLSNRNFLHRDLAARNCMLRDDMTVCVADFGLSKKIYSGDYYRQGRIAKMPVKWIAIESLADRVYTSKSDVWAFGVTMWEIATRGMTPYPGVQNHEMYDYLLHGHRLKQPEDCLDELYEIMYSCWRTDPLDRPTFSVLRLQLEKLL
# Test details: LanthaScreen TR-FRET kinase assay, c-MER
# Condition info: read-out: Mer TK inhibition (IC50); Biochemical IC50, TR-FRET, 10 uM ATP
pIC50: −log10 of the molar value.
Reported pIC50 values are given for each entry in this list.

Entry Cc1ccc(CO[C@H]2CCC[C@@H]2NC(=O)c2cc(-c3ccc(CN4CCC(N5CCOCC5)C4)cc3)cnc2N)cc1C (some centres unmarked) has what pIC50?
> 8.00

Field request: pIC50 | item: `CN1CCN(Cc2ccc(-c3ccc(CO[C@H]4CCC[C@@H]4NC(=O)c4cc(-c5ccc(F)c(F)c5)cnc4N)cc3)cc2)CC1`
> 8.00

What does the record list as pIC50 for `Cn1cc(-c2cnc(N)c(C(=O)N[C@H]3CCC[C@@H]3OCc3cccc(-c4cccc(N)c4)c3)c2)cn1` ?
< 6.00

Query (compound): `CN1CCN(Cc2ccc(-c3ccc(CO[C@H]4CCC[C@@H]4NC(=O)c4cc(-c5ccc(F)nc5)cnc4N)cc3)cc2)CC1` ; field requested: pIC50
> 8.00

What does the record list as pIC50 for `CC1CCN(Cc2ccc(-c3cnc(N)c(C(=O)N[C@H]4CCC[C@@H]4OCc4ccc(-c5ccc(CN6CCN(C)CC6)cc5)cc4)c3)cc2)CC1` ?
> 8.00

Field request: pIC50 | item: `Cn1cc(-c2cnc(N)c(C(=O)N[C@H](COCc3ccccc3)c3ccccc3)c2)cn1`
< 6.00

Requested field: pIC50. Item: CC(c1ccc(-c2ccc(CO[C@H]3CCC[C@@H]3NC(=O)c3cc(-c4cncc(F)c4)cnc3N)cc2)cc1)N1CCN(CCO)CC1 (some centres unmarked)
> 8.00

Quick one: pIC50 for `COc1ccc(CO[C@H]2CCC[C@@H]2NC(=O)c2cc(-c3cnn(C)c3)cnc2N)cc1` ?
< 6.00

Entry `Cc1cc(-c2ccc(CO[C@H]3CCC[C@@H]3NC(=O)c3cc(-c4cnn(C)c4)cnc3N)cc2)ccc1CN1CCN(C)CC1` : reported pIC50 = ?
> 8.00

Can you look up the measured pIC50 of `Cn1cc(-c2cnc(N)c(C(=O)N[C@H]3CCC[C@@H]3OCc3cccc(C(=O)NCCO)c3)c2)cn1` for me?
< 6.00

Would you kindly share the measured pIC50 for `Cn1cc(-c2cnc(N)c(C(=O)N[C@H]3COC[C@@H]3OCc3ccc(-c4ccc(CN5CCN(CCO)CC5)cc4)cc3)c2)cn1` ?
> 8.00

---

IC50 reference
# System tested: human c-MER catalytic domain (Homo sapiens (Human), UniProt Q12866)
# Test details: LanthaScreen TR-FRET kinase assay, c-MER
# Condition info: read-out: Mer TK inhibition (IC50); Biochemical IC50, TR-FRET, 10 uM ATP

Illustrative cases are given below, each with its answer.
> print(dat)
                                   compound  measured.quantity   result
1  Cn1cc(-c2cnc(N)c(C(=O)N[C@H]3COC[C@@H]3OCc3ccc(-c4ccc(CN5CCN(CCO)CC5)c(C(F)(F)F)c4)cc3)c2)cn1 [Example 452]               IC50  < 10 nM
2  CN1CCN(Cc2ccc(-c3ccc(CO[C@H]4CCC[C@@H]4NC(=O)c4cc(-c5ccc(N6CCN(C)CC6)cc5)cnc4N)cc3)cc2)CC1 [Example 367]               IC50  < 10 nM
3  CN1CCN(CCc2ccc(-c3ccc(CO[C@H]4CCC[C@@H]4NC(=O)c4cc(-c5cnn(C)c5)cnc4N)cc3)cc2)CC1 [Example 161]               IC50  < 10 nM
4  COc1ccc(-c2cnc(N)c(C(=O)N[C@H]3CCC[C@@H]3OCc3ccc(-c4ccc(CN5CCN(C)CC5)cc4)cc3)c2)cc1OC [Example 383]               IC50  < 10 nM
5  CN1CCN(Cc2ccc(-c3ccc(CO[C@H]4CCC[C@@H]4NC(=O)c4cc(-c5ccc(CN6CCOCC6)cc5)cnc4N)cc3)cc2)CC1 [Example 379]               IC50  < 10 nM

Using the record for Cn1cc(-c2cnc(N)c(C(=O)N[C@H]3CCC[C@@H]3OCc3ccc(-n4nccn4)cc3)c2)cn1 [Example 62] , report its IC50.
> 1000 nM

I am curious: what IC50 value has been reported for CCc1cc(CO[C@H]2CNC[C@@H]2NC(=O)c2cc(-c3ccc(CN4CCN(C)CC4)cc3)cnc2N)ccc1C [Example 390] ?
< 10 nM

Fill in the blank: the reported IC50 of CN(C)CCOc1ccc(-c2ccc(CO[C@H]3CCC[C@@H]3NC(=O)c3cc(-c4cnn(C)c4)cnc3N)cc2)cc1 [Example 245] is ____.
< 10 nM

Look up IC50 for this compound: CN1C[C@H](NC(=O)c2cc(-c3cnn(C)c3)cnc2N)[C@@H](OCc2ccc(-c3ccc(CN4CCN(CCO)CC4)c(C(F)(F)F)c3)cc2)C1 [Example 445]
< 10 nM

Give its IC50 value. Item: Cn1cc(-c2cnc(N)c(C(=O)N[C@H]3CCC[C@@H]3OCc3cccc([N+](=O)[O-])c3)c2)cn1 [Example 30]
> 1000 nM

Need IC50 of Cn1cc(-c2cnc(N)c(C(=O)N[C@@H](CO)C(=O)OCc3ccccc3)c2)cn1 [Example 128] , thanks.
> 1000 nM

GET /values?readout=IC50&item= Cn1cc(-c2cnc(N)c(C(=O)N[C@H]3CCC[C@@H]3OCc3ccc(-c4ccc(CO)cc4)cc3)c2)cn1 [Example 142]
< 10 nM

---

# System tested: human c-MER catalytic domain (Homo sapiens (Human), UniProt Q12866)
# Test details: LanthaScreen TR-FRET kinase assay, c-MER
# Condition info: read-out: Mer TK inhibition (IC50); Biochemical IC50, TR-FRET, 10 uM ATP
pIC50: −log10 of the molar value.
Below, each entry is listed alongside its reported pIC50.

Observe how each entry below is paired with its result.
> print(dat)
                                   compound  measured.quantity  result
1  CN1CCN(Cc2ccc(-c3ccc(CO[C@H]4CCC[C@@H]4NC(=O)c4cc(-c5ccc(O)cc5)cnc4N)cc3)cc2)CC1              pIC50  > 8.00
2  Cn1cc(-c2cnc(N)c(C(=O)N[C@H](COCc3ccccc3)Cc3ccccc3)c2)cn1              pIC50  < 6.00
3  Cn1cc(-c2cnc(N)c(C(=O)N[C@@H](COCc3ccccc3)c3ccccc3)c2)cn1              pIC50  < 6.00
4  Cn1cc(-c2cnc(N)c(C(=O)N[C@@H](COCc3ccccc3)Cc3ccccc3)c2)cn1              pIC50  < 6.00
5  CN1CCN(C2(c3ccc(-c4ccc(CO[C@H]5CCC[C@@H]5NC(=O)c5cc(-c6ccc(F)nc6)cnc5N)cc4)cc3)CC2)CC1              pIC50  > 8.00
6  CCc1cc(CO[C@H]2CNC[C@@H]2NC(=O)c2cc(-c3ccc(C(N)=O)cc3)cnc2N)ccc1C              pIC50  > 8.00
7  CN1CCN(Cc2c(F)cc(-c3ccc(CO[C@H]4CCC[C@@H]4NC(=O)c4cc(-c5cnn(C)c5)cnc4N)cc3)cc2F)CC1              pIC50  > 8.00
8  CN(C)C1CCN(Cc2ccc(-c3ccc(CO[C@H]4CCC[C@@H]4NC(=O)c4cc(-c5cnn(C)c5)cnc4N)cc3)cc2)C1 (stereo partly drawn)              pIC50  > 8.00

Looking for the measured pIC50 of Cn1cc(-c2cnc(N)c(C(=O)N[C@H]3COC[C@@H]3N3CCOCC3)c2)cn1 (relative stereo) , can you help?
< 6.00

Fill in the blank: the reported pIC50 of `Cn1cc(-c2cnc(N)c(C(=O)N[C@H]3CNC[C@@H]3OCc3ccc(-c4ccc(CN5CCN(CCO)CC5)cc4)cc3)c2)cn1` is ____.
> 8.00

Reported pIC50 for CC(c1ccc(-c2ccc(CO[C@H]3CCC[C@@H]3NC(=O)c3cc(F)cnc3N)cc2)cc1)N1CCN(C)CC1 (stereo partly drawn) : what is it?
> 8.00

Record request: pIC50 value, item `CCc1cc(CO[C@H]2CNC[C@@H]2NC(=O)c2cc(-c3ccc(N(C)C)cc3)cnc2N)ccc1C`
> 8.00
